Kindly supply the reported MIC values for the records listed here.
# Test system: Aspergillus fumigatus
# assay-name: Antifungal activity against Aspergillus fumigatus ATCC 96918 by twofold broth dilution method
# Format: functional
Give a bare numeral; the unit µg/mL is implied.

Fill in the blank: the reported MIC of Cc1cc(=O)oc2cc(OCc3ccc(CBr)cc3)ccc12 is ____.
256

Fill in the blank: the reported MIC of Cc1cc(=O)oc2cc(O)ccc12 [HYMECROMONE] is ____.
128

Fill in the blank: the reported MIC of OC(Cn1cncn1)(Cn1cncn1)c1ccc(F)cc1F [FLUCONAZOLE] is ____.
128

Fill in the blank: the reported MIC of Cc1cc(=O)oc2cc(OCCCCn3cncn3)cc(OCCCCn3cncn3)c12 is ____.
4

Fill in the blank: the reported MIC of Cc1cc(=O)oc2cc(O)cc(O)c12 [5,7-DIHYDROXY-4-METHYLCOUMARIN] is ____.
256

Fill in the blank: the reported MIC of Cc1cc(=O)oc2cc(OCCCCCBr)ccc12 is ____.
256

Fill in the blank: the reported MIC of Cc1cc(=O)oc2cc(OCCCCCCn3cncn3)ccc12 is ____.
32

Fill in the blank: the reported MIC of Cc1cc(=O)oc2cc(OCCCCCBr)cc(OCCCCCBr)c12 is ____.
128

Fill in the blank: the reported MIC of Cc1cc(=O)oc2cc(OCc3ccc(Cn4cncn4)cc3)ccc12.Cl is ____.
16

Fill in the blank: the reported MIC of Cc1cc(=O)oc2cc(OCc3ccc(Cn4cncn4)cc3)cc(OCc3ccc(Cn4cncn4)cc3)c12.Cl is ____.
16

Fill in the blank: the reported MIC of Cc1cc(=O)oc2cc(OCc3ccc(Cn4cncn4)cc3)ccc12 is ____.
64

###

# Tested on: Escherichia coli
# assay-name: Antimicrobial activity against Escherichia coli ATCC 25922 by twofold broth dilution method
# Assay type: functional
Binary label based on MIC with cut-off 300 µg/mL: below gives Yes, not below gives No.

Please check: MIC for Cc1cc(=O)oc2cc(OCCCCn3cncn3)ccc12.Cl , strictly under 300 µg/mL or not?
Yes

Please check: MIC for Cc1cc(=O)oc2cc(OCc3ccc(Cn4cncn4)cc3)ccc12.Cl , strictly under 300 µg/mL or not?
Yes

Please check: MIC for Cc1cc(=O)oc2cc(OCCCCCCOc3ccc4c(C)cc(=O)oc4c3)ccc12 , strictly under 300 µg/mL or not?
Yes

Please check: MIC for O=C(N[C@H](CO)[C@H](O)c1ccc([N+](=O)[O-])cc1)C(Cl)Cl , strictly under 300 µg/mL or not?
Yes

Please check: MIC for Cc1cc(=O)oc2cc(OCCCCCOc3ccc4c(C)cc(=O)oc4c3)ccc12 , strictly under 300 µg/mL or not?
Yes

Please check: MIC for Cc1cc(=O)oc2cc(OCc3ccc(COc4ccc5c(C)cc(=O)oc5c4)cc3)ccc12 , strictly under 300 µg/mL or not?
No

Please check: MIC for Cc1cc(=O)oc2cc(O)ccc12 , strictly under 300 µg/mL or not?
Yes

Please check: MIC for Cc1cc(=O)oc2cc(O)cc(O)c12 [5,7-DIHYDROXY-4-METHYLCOUMARIN] , strictly under 300 µg/mL or not?
Yes

Please check: MIC for Cc1cc(=O)oc2cc(OCc3ccc(CBr)cc3)ccc12 , strictly under 300 µg/mL or not?
No

Please check: MIC for Cc1cc(=O)oc2cc(OCCCCCBr)ccc12 , strictly under 300 µg/mL or not?
No

Please check: MIC for Cc1cc(=O)oc2cc(OCCCCn3cncn3)ccc12 , strictly under 300 µg/mL or not?
Yes

###

Kindly supply the reported log10 MIC values for the records listed here.
# Tested on: Salmonella typhi
# assay-name: Antimicrobial activity against Salmonella typhi ATCC 9484 by twofold broth dilution method
# Assay type: functional, Salmonella enterica subsp. enterica serovar Typhi
# test-context: Salmonella enterica
Transform log10 | Measure MIC | Unit µg/mL

Fill in the blank: the reported log10 MIC of Cc1cc(=O)oc2cc(OCCCCCn3cncn3)ccc12 is ____.
1.20

Fill in the blank: the reported log10 MIC of Cc1cc(=O)oc2cc(OCCCCCCn3cncn3)ccc12 is ____.
1.51

Fill in the blank: the reported log10 MIC of Cc1cc(=O)oc2cc(OCc3ccc(CBr)cc3)ccc12 is ____.
2.71

Fill in the blank: the reported log10 MIC of Cc1cc(=O)oc2cc(OCCCCBr)ccc12 is ____.
2.41

Fill in the blank: the reported log10 MIC of Cc1cc(=O)oc2cc(OCCCCn3cncn3)cc(OCCCCn3cncn3)c12 is ____.
0.00

###

# System: Aspergillus fumigatus
# assay-name: Antifungal activity against Aspergillus fumigatus ATCC 96918 by twofold broth dilution method
# Assay type: functional
observed-property: MIC

# value lookup — system Aspergillus fumigatus, readout MIC, item Cc1cc(=O)oc2cc(OCCCCBr)ccc12
512 µg/mL

# value lookup — system Aspergillus fumigatus, readout MIC, item Cc1cc(=O)oc2cc(OCCCCCn3cncn3)ccc12
16 µg/mL

# value lookup — system Aspergillus fumigatus, readout MIC, item Cc1cc(=O)oc2cc(OCCCCCCOc3ccc4c(C)cc(=O)oc4c3)ccc12
512 µg/mL

# value lookup — system Aspergillus fumigatus, readout MIC, item Cc1cc(=O)oc2cc(OCCCCCn3cncn3)cc(OCCCCCn3cncn3)c12
32 µg/mL

# value lookup — system Aspergillus fumigatus, readout MIC, item Cc1cc(=O)oc2cc(OCc3ccc(Cn4cncn4)cc3)cc(OCc3ccc(Cn4cncn4)cc3)c12
64 µg/mL

# value lookup — system Aspergillus fumigatus, readout MIC, item Cc1cc(=O)oc2cc(OCCCCCOc3ccc4c(C)cc(=O)oc4c3)ccc12
512 µg/mL

# value lookup — system Aspergillus fumigatus, readout MIC, item Cc1cc(=O)oc2cc(OCCCCCCBr)cc(OCCCCCCBr)c12
128 µg/mL

# value lookup — system Aspergillus fumigatus, readout MIC, item Cc1cc(=O)oc2cc(OCCCCn3cncn3)cc(OCCCCn3cncn3)c12.Cl
2 µg/mL

# value lookup — system Aspergillus fumigatus, readout MIC, item Cc1cc(=O)oc2cc(OCc3ccc(CBr)cc3)cc(OCc3ccc(CBr)cc3)c12
256 µg/mL

# value lookup — system Aspergillus fumigatus, readout MIC, item Cc1cc(=O)oc2cc(OCCCCBr)cc(OCCCCBr)c12
256 µg/mL

###

# Test system: Escherichia coli
# assay-name: Antimicrobial activity against Escherichia coli ATCC 25922 by twofold broth dilution method
# Format: functional
observed-property: MIC (µg/mL)
Give a bare numeral; the unit µg/mL is implied.

Fill in the blank: the reported MIC of Cc1cc(=O)oc2cc(OCc3ccc(CBr)cc3)cc(OCc3ccc(CBr)cc3)c12 is ____.
512

Fill in the blank: the reported MIC of Cc1cc(=O)oc2cc(OCCCCBr)ccc12 is ____.
256

Fill in the blank: the reported MIC of Cc1cc(=O)oc2cc(OCCCCOc3ccc4c(C)cc(=O)oc4c3)ccc12 is ____.
256

Fill in the blank: the reported MIC of Cc1cc(=O)oc2cc(OCCCCn3cncn3)cc(OCCCCn3cncn3)c12 is ____.
1

Fill in the blank: the reported MIC of Cc1cc(=O)oc2cc(OCCCCBr)cc(OCCCCBr)c12 is ____.
512

Fill in the blank: the reported MIC of CCn1cc(C(=O)O)c(=O)c2cc(F)c(N3CCNCC3)nc21 is ____.
1

Fill in the blank: the reported MIC of Cc1cc(=O)oc2cc(OCCCCCCBr)ccc12 is ____.
512

Fill in the blank: the reported MIC of Cc1cc(=O)oc2cc(OCCCCCCn3cncn3)ccc12 is ____.
32

Fill in the blank: the reported MIC of Cc1cc(=O)oc2cc(OCc3ccc(Cn4cncn4)cc3)cc(OCc3ccc(Cn4cncn4)cc3)c12 is ____.
64

Fill in the blank: the reported MIC of Cc1cc(=O)oc2cc(OCc3ccc(Cn4cncn4)cc3)ccc12 is ____.
64

Fill in the blank: the reported MIC of Cc1cc(=O)oc2cc(OCCCCCBr)cc(OCCCCCBr)c12 is ____.
512

Fill in the blank: the reported MIC of Cc1cc(=O)oc2cc(OCCCCn3cncn3)cc(OCCCCn3cncn3)c12.Cl is ____.
1

Fill in the blank: the reported MIC of Cc1cc(=O)oc2cc(OCc3ccc(Cn4cncn4)cc3)cc(OCc3ccc(Cn4cncn4)cc3)c12.Cl is ____.
8

Fill in the blank: the reported MIC of Cc1cc(=O)oc2cc(OCCCCCCn3cncn3)cc(OCCCCCCn3cncn3)c12 is ____.
8

Fill in the blank: the reported MIC of Cc1cc(=O)oc2cc(OCCCCCn3cncn3)cc(OCCCCCn3cncn3)c12 is ____.
8

Fill in the blank: the reported MIC of Cc1cc(=O)oc2cc(OCCCCCCBr)cc(OCCCCCCBr)c12 is ____.
512

Fill in the blank: the reported MIC of Cc1cc(=O)oc2cc(OCCCCCn3cncn3)ccc12 is ____.
32
